# Test system: RPMI-8226
# Experimental protocol: NCI tumour cell line growth inhibition, 48 h
The source made the active and inactive calls. No stated cut-off is given here; in the data, active = GI50 up to about 1.1 µM and inactive = higher.

{"Compound": "CC(C)SC(C)(NC(=O)C1C(C)(C)CCC1(C)C)C(=O)O (stereo unspecified)", "GI50": "> 100 µM (inactive)"}
{"Compound": "C=C1C(=O)OC2/C=C(/C)C(OC(C)=O)C/C=C(\\C)C(OC(=O)C3(C)OC3C)C(O)C12 (stereo unspecified)", "GI50": "43.9 µM (inactive)"}
{"Compound": "CCN1CCC(CNC(=O)c2ccc(N)cc2)N1CC (stereo unspecified)", "GI50": "> 100 µM (inactive)"}
{"Compound": "COc1ccc(O)c(C#N)c1C#N", "GI50": "> 100 µM (inactive)"}
{"Compound": "O=C1OC(c2ccc(Cl)cc2)=N/C1=C\\c1ccccc1", "GI50": "46.6 µM (inactive)"}
{"Compound": "O=C1/C(=C/c2ccccc2)NC(=S)N1CN1CCOCC1", "GI50": "> 100 µM (inactive)"}

====

# System: NCI-H23
# Experimental protocol: NCI tumour cell line growth inhibition, 48 h
Calls of active or inactive are those of the source. No stated cut-off is given here; in the data, active = GI50 up to about 1.1 µM and inactive = higher.
Possible outcomes: True = active, False = inactive

{"Compound": "N=C(N)N/N=C\\c1ccc(C2CCNCC2)cc1", "Class": "False"}
{"Compound": "O=C(/C=C/c1ccc(Cl)cc1)c1ccccc(=O)c1O", "Class": "False"}
{"Compound": "COc1cccc(CC(C)N)c1 (stereo not given)", "Class": "False"}
{"Compound": "Cc1cc(N(CCC#N)CCC#N)ccc1C(/N=N/c1ccccc1)=N\\NC(=O)c1cc(Cl)ccc1O", "Class": "False"}
{"Compound": "COc1ccc(N2C(=O)C3c4[nH]c5ccccc5c4C4c5ccccc5CC4C3C2=O)cc1 (stereo not given)", "Class": "False"}
{"Compound": "O=C(O)Cc1cccc2c1OC(c1ccccc1)C(C(=O)c1ccccc1)C2=O (stereo not given)", "Class": "False"}
{"Compound": "NS(=O)(=O)c1cc(Cl)c(NC(=S)NC(=O)Nc2ccc(Cl)c(Cl)c2)c(Cl)c1", "Class": "False"}
{"Compound": "Cc1cc2[nH]c3c(C#N)c(-c4ccccc4)c(/C=N/c4cccc(C(F)(F)F)c4)c(=O)n3c2cc1C", "Class": "False"}
{"Compound": "COc1cc(-c2[nH]ccc2Cl)oc1C1=C2N=C3C=C2C(C(C)C)C1CCCCCCCC3 (stereo not given)", "Class": "True"}
{"Compound": "O=c1[nH]nc(Cc2ccccc2)n1C1CCCC1", "Class": "False"}

====

# Test system: SNB-75
# Experimental protocol: NCI tumour cell line growth inhibition, 48 h
Calls of active or inactive are those of the source. Rule as the data show it: active = GI50 up to about 1.1 µM and inactive = higher.
Possible outcomes: 1 (yes) (active), 0 (no) (inactive)

{"Compound": "c1cc(CN2CCNCCNCCNCC2)cc(CN2CCNCCNCCNCC2)c1", "Class": "0 (no)"}
{"Compound": "CC(C)(C)C#C[P+](c1ccccc1)(c1ccccc1)c1ccccc1", "Class": "1 (yes)"}
{"Compound": "CNC(=S)N/N=C(\\C)c1cc(OC)ccc1O", "Class": "0 (no)"}
{"Compound": "Cn1c(=O)n(C2(C)CSC2)c2ccccc21", "Class": "0 (no)"}
{"Compound": "O=C(O)c1cc(Cl)cc(NC(=O)C(Cl)Cl)c1Cl", "Class": "0 (no)"}
{"Compound": "CCOC(=O)NC(=S)NC(C)c1ccccc1 (configuration not stated)", "Class": "0 (no)"}
{"Compound": "CCOC(=O)c1c(Sc2ccc([N+](=O)[O-])cc2[N+](=O)[O-])nc2c3ccccc3ccn12", "Class": "0 (no)"}
{"Compound": "CC(=O)Oc1ccc2c(c1)C(=O)c1nc(C)c(C)nc1C2=O", "Class": "0 (no)"}
{"Compound": "Nc1nc(=O)n([C@@H]2CC[C@H](CO)O2)cc1F", "Class": "0 (no)"}
{"Compound": "O=C(O)Cc1cccc2c1OC(c1ccccc1)C(C(=O)c1ccccc1)C2=O (configuration not stated)", "Class": "0 (no)"}
{"Compound": "COc1ccc(/N=N/c2ccc3oc(=O)c(C(=O)Nc4ccccc4)cc3c2)cc1", "Class": "0 (no)"}
{"Compound": "Cc1cc(NCc2ccccc2)c2ccccc2[n+]1CCCCCCCCCC[n+]1c(C)cc(NCc2ccccc2)c2ccccc21.[O-][Cl+3]([O-])([O-])[O-].[O-][Cl+3]([O-])([O-])[O-]", "Class": "1 (yes)"}
{"Compound": "COc1ccc2c3c1OC1C4(CCC5C(C2)N(CC2CC2)CCC351)OCCO4 (configuration not stated)", "Class": "0 (no)"}
{"Compound": "CC(=O)OCC1OC(Sc2ccccn2)C=CC1OC(C)=O (configuration not stated)", "Class": "0 (no)"}
{"Compound": "CCOC(=O)CNc1c(OCc2ccccc2)c(=O)c1=O", "Class": "0 (no)"}
{"Compound": "Cc1nnc(N/N=C(/C(=O)C(C#N)c2ccccc2)C(C#N)c2ccccc2)n1N (configuration not stated)", "Class": "0 (no)"}
{"Compound": "O=c1[nH]c(-c2ccccc2)nc2cc(Cl)ccc12", "Class": "0 (no)"}
{"Compound": "CN(Cc1cnc2nc(N)nc(N)c2n1)c1ccc(C(=O)N[C@@H](CCC(=O)O)C(=O)O)cc1 [METHOTREXATE]", "Class": "0 (no)"}
{"Compound": "Cc1cc(SCC(=O)c2ccc(Br)cc2)cc(C)[o+]1", "Class": "0 (no)"}
{"Compound": "CC1CC(C)C(C(O)CC2CC(=O)N(c3ccccc3)C(=O)C2)C(O)C1 (configuration not stated)", "Class": "0 (no)"}
{"Compound": "OC1(c2cccs2)c2cccc(Cl)c2C(O)(c2cccs2)c2c(Cl)cccc21 (configuration not stated)", "Class": "0 (no)"}
{"Compound": "CCCCCC1=CC(=O)C1(Cl)Cl", "Class": "0 (no)"}

// provenance: ChEMBL document CHEMBL1201862
